# Measurement target: Human DAAO (Homo sapiens, UniProt P14920)
# Sequence (P14920 whole entry): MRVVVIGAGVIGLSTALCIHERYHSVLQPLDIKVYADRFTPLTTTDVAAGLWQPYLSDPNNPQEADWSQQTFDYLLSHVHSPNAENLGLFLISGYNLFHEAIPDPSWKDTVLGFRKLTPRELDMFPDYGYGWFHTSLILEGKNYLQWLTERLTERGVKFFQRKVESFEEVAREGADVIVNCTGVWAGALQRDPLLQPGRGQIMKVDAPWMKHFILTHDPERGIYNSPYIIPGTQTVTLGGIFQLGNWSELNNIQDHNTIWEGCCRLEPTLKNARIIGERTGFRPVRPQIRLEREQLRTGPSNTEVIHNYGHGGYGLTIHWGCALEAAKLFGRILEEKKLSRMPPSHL
Metric name: IC50 (nM)
Answer format: numeric, nM implied, no suffix.

I am curious: what IC50 value has been reported for COc1cccc(-c2cc(=O)oc3cc(O)c(CCc4cc(O)c(=O)[nH]n4)cc23)c1 [Compound 13] ?
73

Data request, read-out IC50, for O=c1cc(-c2ccccc2)c2cc(CCc3cc(O)c(=O)[nH]n3)c(O)cc2o1 [Compound 8, reference compound]
112

Cited source for all entries: paper PMC6358909
